# Tested on: HCC-2998 colon
# Assay notes: NCI tumour cell line growth inhibition, 48 h
Value kind: TGI (µM)

INSERT INTO assay_data (molecule, measurement_qualifier, reported_result) VALUES
  ('Cc1ccc(S(=O)(=O)N[C@H](C(=O)O)c2ccccc2)cc1', '>', 100),
  ('CC(=O)Nc1ccc(Nc2cc(=O)[nH]c(=O)[nH]2)cc1', '>', 100),
  ('OC1[C@H]([C@H]2CCCC[C@@H]2O)CCC[C@@H]1[C@@H]1CCCC[C@H]1O (some centres not stated)', '>', 100),
  ('NCC(=O)NC1(c2cc3ccccc3s2)CCCCC1', '=', 29),
  ('CO/N=C(\C)c1ccc(Nc2c3ccccc3nc3occc23)cc1', '=', 1.94),
  ('CCOC(=O)Nc1cc2nnc(-c3ccccc3)nc2c(N)n1', '>', 100),
  ('COc1cc2c[n+](C)c3c4cc(OC)c(OC)cc4c(OC)cc3c2cc1OC', '>', 52.1),
  ('NCCNc1c2c(c(NCCN)c3c(CO)c[nH]c13)C(=O)c1ccccc1C2=O', '=', 52.3),
  ('CC1CC(C2=CC=CCS2)=Nc2ccccc2S1 (configuration not stated)', '>', 100),
  ('CCOC(=O)c1c2c3c(cccc3[nH]c1=O)Sc1ncccc1-2', '>', 100),
  ('O=C1C(Cl)=C(Nc2cccc(Cl)c2)C(=O)N1Cc1ccccc1', '=', 18.1),
  ('C=C1C(=O)O[C@H]2[C@H]1CC/C(CNC(=O)Cc1c[nH]c3ccccc13)=C\CC[C@@]1(C)O[C@@H]21', '=', 15.5),
  ('COc1ccc(C2CC(c3cc(OC)c(OC)c(OC)c3)=NO2)cc1OCCCCOc1cc2c(cc1OC)C(=O)N1CCC[C@H]1C=N2 (some centres not stated)', '=', 3.04),
  ('CN(C)CCOc1cccc2c1C(=O)c1ccccc1C2=O', '=', 30.3),
  ('O=S(=O)(O)c1c(Cl)cc(O)c2ncccc12', '>', 100),
  ('Nc1ccc2c(c1)C(=O)C(=O)c1c-2nc2ccccn12', '=', 4.09),
  ('N#Cc1c(-c2ccccc2)nc(SCC2CO2)nc1N1CCOCC1 (configuration not stated)', '=', 18.2),
  ('O=c1cc(NCCCCCO)[nH]c(=O)[nH]1', '>', 100),
  ('CC(=O)OC1=c2ccccc2=C(O)C2C1C=NN2C(C)=O (configuration not stated)', '>', 100),
  ('CC(C)(C)NNC(=O)/C(=C/c1ccc([N+](=O)[O-])cc1)NC(=O)c1ccccc1', '>', 100),
  ('CN1C(=O)CC(c2cccc(C3CC(=O)N(C)C3=O)n2)C1=O (configuration not stated)', '>', 100),
  ('C=CC[n+]1c(/C=C/C=C2\N(C)c3ccccc3C2(C)C)sc2ccc(OC)cc21', '=', 21.3);

---

# Tested on: SNB-75 CNS
# Assay notes: NCI tumour cell line growth inhibition, 48 h
Value kind: TGI (µM)

INSERT INTO measurements (compound, measurement_qualifier, reported_result) VALUES
  ('CC(=N\N)/C(C)=N/N=C(C)/C(C)=N/N=C(C)/C(C)=N/N=C(C)/C(C)=N/N', '>', 100),
  ('CC1(C)N=C(N)N=C(N)N1c1cccc(CCCCc2cccc(S(=O)(=O)F)c2)c1', '=', 23.7),
  ('COc1ccccc1/C=C(\C#N)c1ccccc1', '=', 60),
  ('NCCSc1nc2ccccc2s1', '=', 62.1),
  ('CC1CC[C@]2(C(=O)O)CCC3(COC(=O)/C=C\c4ccc(O)cc4)C(=CCC4[C@@]5(C)CC[C@H](O)C(C)(C)C5CC[C@]43C)[C@@H]2[C@H]1C (stereo partly specified)', '=', 80.9),
  ('CN(C)C(Cc1cnc[nH]1)C(=O)N1CCCC1C(N)=O (stereo unspecified)', '>', 100),
  ('O=[N+]([O-])c1nc(-c2ccccn2)[nH]c1[N+](=O)[O-]', '>', 100),
  ('F', '=', 5570),
  ('Cc1cn(Cc2ccccc2CCO)c(=S)[nH]c1=O', '>', 100),
  ('CC[C@@]1(N(C)C)C(=O)OCc2c1cc1n(c2=O)Cc2cc3ccccc3nc2-1', '=', 34.5),
  ('C=CCN1CCC(OC(=O)C(O)(C#CC)C2CCCC2)CC1 (stereo unspecified)', '>', 100),
  ('CCOC(=O)CN1C(=O)c2c(c(C)n(-c3ccccc3)c2C)C1=O', '>', 100),
  ('CC(C)(C)c1cc(C(=O)Nc2cc(Br)c(Br)cc2S(N)(=O)=O)cc(C(C)(C)C)c1O', '=', 21.5),
  ('CC(=O)ON(C(C)=O)c1ccc(-c2nc3ccccc3s2)cc1', '>', 89.9),
  ('CCNC(C)Cc1ccccc1 (stereo unspecified)', '>', 100),
  ('CN(C)c1ccc(/C=c2/c3ccccc3n3c2c2ccccc2[n+]3C)cc1', '=', 8.29),
  ('CN(C)CCOc1ccc2[nH]c(C(=O)N3CC(CCl)c4c3cc(N)c3ccccc43)cc2c1 (stereo unspecified)', '<', 0.215),
  ('COC1=C2CC(C)CC(OC)C(O)C(C)/C=C(\C)C(OC(N)=O)C(OC)/C=C\C=C(/C)C(=O)NC(=C(C=NC(C)(C)C)C1=O)C2=O (stereo unspecified)', '=', 6.15),
  ('Oc1ccc(-c2csc(NNC3=NC/C(=C/c4ccc5c(c4)OCO5)S3)n2)cc1O', '=', 38.9),
  ('COc1cccc2c1C(=O)C=CC2=O', '=', 29.9),
  ('O=C1[C@@H]2C(c3ccccc3Br)=NO[C@@H]2C(=O)N1c1ccc(Cc2ccc(N3C(=O)[C@H]4C(c5ccccc5Br)=NO[C@H]4C3=O)cc2)cc1', '>', 100);
